Molecular target: c-Myc protein (Homo sapiens)
Construct: degradation of myc and GSPT1 proteins in HL60 cells; endogenous in cells; host or cells: HL60
Sequence (P01106 whole entry): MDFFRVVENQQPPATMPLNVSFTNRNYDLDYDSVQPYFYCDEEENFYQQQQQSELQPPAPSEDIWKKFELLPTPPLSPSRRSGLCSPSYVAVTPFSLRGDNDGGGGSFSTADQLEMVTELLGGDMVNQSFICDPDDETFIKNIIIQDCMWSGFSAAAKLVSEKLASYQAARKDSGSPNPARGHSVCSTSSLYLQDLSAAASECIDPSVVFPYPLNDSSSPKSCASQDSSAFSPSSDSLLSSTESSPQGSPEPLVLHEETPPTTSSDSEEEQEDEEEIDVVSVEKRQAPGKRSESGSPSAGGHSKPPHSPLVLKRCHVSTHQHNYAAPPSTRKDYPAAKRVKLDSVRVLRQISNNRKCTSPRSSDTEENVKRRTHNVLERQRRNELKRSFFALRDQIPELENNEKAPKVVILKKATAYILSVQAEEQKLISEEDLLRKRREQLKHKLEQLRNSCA
Experiment: c-Myc protein degradation in HL60 cells (Western blot)
Assay type: cell-based
Details: HL-60, compound at 10 nM, 24 h, gray value relative to Ctrl (DMSO), read-out: Remaining amount of c-Myc protein (@10 nM/Ctrl)
Method: HL60 cells in the exponential growth phase were digested and plated into a 6-well plate at 1×10^6 cells per well. The cell culture medium was RPMI-1640 (meilunbio, MA0215). After a day of adherent growth of the cells, the compound of the present invention was added as a test drug for culture, and proteins were extracted 24 h later (Ctrl meant adding only DMSO at the same volume). […]
Readout Name: remaining activity at 0.01 µM (%)
Your answer is read as %, so omit the unit and give the number.

Memo: O=C1CCC(N2Cc3cc(NC(=O)CC4CCN(c5cc(-c6cccc7ccccc67)ccn5)CC4)ccc3C2=O)C(=O)N1 (stereo not shown) [Compound A17] , reported remaining activity at 0.01 µM: 23

The compound listed as COC(=O)c1cc(-c2cccc(Cl)c2)cnc1N1CCC(CNCc2ccc3c(c2)CN(C2CCC(=O)NC2=O)C3=O)CC1 (stereo not shown) [Compound A100] has a reported remaining activity at 0.01 µM of 0

Please fill in: remaining activity at 0.01 µM reported for O=C1CCC(N2Cc3cc(CNCC4CCN(c5ncc(-c6cccc(Cl)c6)cn5)CC4)ccc3C2=O)C(=O)N1 (stereo not shown) [Compound A66] = 9

What the record says about O=C1CCC(N2Cc3cc(CNCC4CCN(c5ncc(-c6cccc7ccccc67)cn5)CC4)ccc3C2=O)C(=O)N1 (stereo not shown) [Compound A62] : remaining activity at 0.01 µM is 17

So for O=C1CCC(N2Cc3cc(NC(=O)CC4CCN(c5ncc(-c6cccc(Cl)c6)cn5)CC4)ccc3C2=O)C(=O)N1 (stereo not shown) [Compound A53] , the logged remaining activity at 0.01 µM turned out to be 10

Consider O=C1CCC(N2Cc3cc(CNCC4CCN(c5ncc(-c6ccc(Cl)cc6)cc5F)CC4)ccc3C2=O)C(=O)N1 (stereo not shown) [Compound A74] . Its measured remaining activity at 0.01 µM is 104

Short answer for Cc1cccc(-c2cnc(N3CCC(F)(CNCc4ccc5c(c4)CN(C4CCC(=O)NC4=O)C5=O)CC3)c(C(F)(F)F)c2)c1 (stereo not shown) [Compound A85] : remaining activity at 0.01 µM was 8

Memo: N#Cc1cc(-c2cccc(Cl)c2)ccc1N1CCC(CNCc2ccc3c(c2)CN(C2CCC(=O)NC2=O)C3=O)CC1 (stereo not shown) [Compound A103] , reported remaining activity at 0.01 µM: 6

The reported value for N#Cc1cccc(-c2cnc(N3CCC(CNCc4ccc5c(c4)CN(C4CCC(=O)NC4=O)C5=O)CC3)c(F)c2)c1 (stereo not shown) [Compound A111] in terms of remaining activity at 0.01 µM is 6

Short answer for N#Cc1cc(-c2cccc(Cl)c2)cnc1N1CCC(CNCc2ccc3c(c2)CN(C2CCC(=O)NC2=O)C3=O)CC1 (stereo not shown) [Compound A98] : remaining activity at 0.01 µM was 157

The reported remaining activity at 0.01 µM of the compound Cc1cccc(-c2cnc(N3CCC(CNCc4ccc5c(c4)CN(C4CCC(=O)NC4=O)C5=O)CC3)c(C(F)(F)F)c2)c1 (stereo not shown) [Compound A94] was 0

Entry under test: O=C1CCC(N2Cc3cc(CNCC4CCN(c5ncc(-c6cccc(F)c6)cc5C(F)(F)F)CC4)ccc3C2=O)C(=O)N1 (stereo not shown) [Compound A93] . Its remaining activity at 0.01 µM was 12

Lab note: O=C1CCC(N2Cc3cc(CNCC4CCN(c5ncc(-c6ccccc6F)cc5F)CC4)ccc3C2=O)C(=O)N1 (stereo not shown) [Compound A107] gave remaining activity at 0.01 µM of 46

Origin of the recorded values: patent US20250059162A1
